I'd be grateful if you could share measured pIC50 for these entries.
# TARGET_OF_ASSAY: Phosphatidylinositol 3-kinase regulatory subunit alpha/4,5-bisphosphate 3-kinase catalytic subunit alpha isoform (Homo sapiens, UniProt P27986+P42336)
# Sequence (P27986 whole entry, canonical isoform): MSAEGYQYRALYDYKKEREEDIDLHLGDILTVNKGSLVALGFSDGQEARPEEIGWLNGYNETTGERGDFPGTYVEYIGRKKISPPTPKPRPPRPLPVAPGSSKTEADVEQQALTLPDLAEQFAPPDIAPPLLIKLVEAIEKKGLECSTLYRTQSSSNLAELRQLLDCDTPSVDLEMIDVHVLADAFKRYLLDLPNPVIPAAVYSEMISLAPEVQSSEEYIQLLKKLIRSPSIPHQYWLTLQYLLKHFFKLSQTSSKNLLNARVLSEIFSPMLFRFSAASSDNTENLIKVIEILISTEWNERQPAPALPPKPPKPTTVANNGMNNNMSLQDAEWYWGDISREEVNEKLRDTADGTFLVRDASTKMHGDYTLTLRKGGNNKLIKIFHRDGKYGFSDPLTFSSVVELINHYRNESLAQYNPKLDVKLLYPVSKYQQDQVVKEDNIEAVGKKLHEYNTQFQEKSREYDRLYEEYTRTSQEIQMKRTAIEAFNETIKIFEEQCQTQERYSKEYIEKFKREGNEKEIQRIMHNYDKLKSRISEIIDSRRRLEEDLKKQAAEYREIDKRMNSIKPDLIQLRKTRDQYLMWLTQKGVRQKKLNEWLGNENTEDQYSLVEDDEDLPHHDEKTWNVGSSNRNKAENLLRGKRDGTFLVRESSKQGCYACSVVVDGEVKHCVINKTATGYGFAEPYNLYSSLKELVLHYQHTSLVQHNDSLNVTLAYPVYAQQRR
# Sequence (P42336 whole entry, canonical isoform): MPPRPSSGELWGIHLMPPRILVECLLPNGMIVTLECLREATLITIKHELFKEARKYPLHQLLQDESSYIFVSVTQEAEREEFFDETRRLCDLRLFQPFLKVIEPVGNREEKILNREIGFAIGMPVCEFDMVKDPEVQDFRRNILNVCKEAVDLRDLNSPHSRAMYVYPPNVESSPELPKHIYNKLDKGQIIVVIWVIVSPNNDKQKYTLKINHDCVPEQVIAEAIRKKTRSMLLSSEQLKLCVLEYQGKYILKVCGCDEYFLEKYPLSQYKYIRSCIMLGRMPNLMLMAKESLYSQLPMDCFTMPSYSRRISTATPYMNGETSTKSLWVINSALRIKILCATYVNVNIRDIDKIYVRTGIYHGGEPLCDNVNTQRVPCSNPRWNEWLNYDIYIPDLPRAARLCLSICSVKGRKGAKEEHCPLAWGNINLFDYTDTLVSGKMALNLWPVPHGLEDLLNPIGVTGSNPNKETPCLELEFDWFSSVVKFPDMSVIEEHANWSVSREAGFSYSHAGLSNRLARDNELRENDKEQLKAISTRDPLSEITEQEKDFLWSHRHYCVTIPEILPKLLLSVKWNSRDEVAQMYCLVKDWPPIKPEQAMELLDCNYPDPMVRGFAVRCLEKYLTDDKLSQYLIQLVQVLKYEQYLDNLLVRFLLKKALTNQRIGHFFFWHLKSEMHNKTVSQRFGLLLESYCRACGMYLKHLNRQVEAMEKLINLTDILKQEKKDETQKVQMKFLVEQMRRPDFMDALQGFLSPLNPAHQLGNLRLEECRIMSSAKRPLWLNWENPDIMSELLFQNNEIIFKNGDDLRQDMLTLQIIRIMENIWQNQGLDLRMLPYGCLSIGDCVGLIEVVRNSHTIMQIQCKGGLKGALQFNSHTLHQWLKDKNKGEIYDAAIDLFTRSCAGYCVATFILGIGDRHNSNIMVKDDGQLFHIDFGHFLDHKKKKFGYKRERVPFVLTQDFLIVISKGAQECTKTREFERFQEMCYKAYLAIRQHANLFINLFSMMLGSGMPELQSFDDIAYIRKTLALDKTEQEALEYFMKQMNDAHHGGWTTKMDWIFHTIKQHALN
# ASSAY_PROTOCOL: Inhibition of human PI3Kalpha (p110alpha/p85alpha) by ADP accumulation based HTRF assay
Please express pIC50 as -log10 of the molar concentration.

Value of measured pIC50 for the entry Cc1ccncc1-c1cn2cc(CN3CCN(S(C)(=O)=O)CC3)nc2c(N2CCOCC2)n1 : 6.33

Value of measured pIC50 for the entry Cc1nc(N)ncc1-c1cn2cc(CN3CCN(S(C)(=O)=O)CC3)nc2c(N2CCOCC2)n1 : 7.49

Value of measured pIC50 for the entry COc1ccc(-c2cn3cc(CN4CCN(S(C)(=O)=O)CC4)nc3c(N3CCOCC3)n2)cn1 : 5.34

Value of measured pIC50 for the entry CC(=O)Nc1ccc(-c2cn3cc(CN4CCN(S(C)(=O)=O)CC4)nc3c(N3CCOCC3)n2)cn1 : 6.68

Value of measured pIC50 for the entry CS(=O)(=O)N1CCN(Cc2cn3cc(-c4cnc5[nH]ccc5c4)nc(N4CCOCC4)c3n2)CC1 : 6.95

Value of measured pIC50 for the entry Cc1ccc(-c2cn3cc(CN4CCN(S(C)(=O)=O)CC4)nc3c(N3CCOCC3)n2)cn1 : 6.11

Value of measured pIC50 for the entry CS(=O)(=O)N1CCC2(CC1)CN(Cc1cn3cc(-c4cnc(N)nc4)nc(N4CCOCC4)c3n1)C2 : 6.96

Value of measured pIC50 for the entry CN(C)CC(=O)N1CCN(Cc2cn3cc(-c4cnc(N)nc4)nc(N4CCOCC4)c3n2)CC1 : 7.47

Value of measured pIC50 for the entry Cc1ncc(-c2cn3cc(CN4CCN(S(C)(=O)=O)CC4)nc3c(N3CCOCC3)n2)cn1 : 7.68

Value of measured pIC50 for the entry CS(=O)(=O)N1CCN(Cc2cn3cc(-c4ccc(N)nc4)nc(N4CCOCC4)c3n2)CC1 : 6.77

All values here come from BindingDB's records for doi:10.1016/j.bmcl.2012.03.090.
